test system: 3D HepaRG/HSC co-culture; assay: APAP toxicity assay, cell viability by ATP (Cell titer Glo); type: cell-based, human; settings: Homo sapiens, 504 h; Day 21/22; 3D HepaRG/HSC; current study, 0% DMSO; read-out: APAP EC50 values (±stdev)
measurementName: EC50 (mM)
Give just the numeric value; mM need not be written.

In plain terms, `CC(=O)Nc1ccc(O)cc1` has a documented EC50 of 8

###

test system: 3D HepaRG mono-culture; test: APAP toxicity assay, cell viability by ATP (Cell titer Glo); assay type: cell-based; conditions: Homo sapiens, 144 h, Day 6/7, current study, 0% DMSO, read-out: APAP EC50 values (±stdev)
measurementName: EC50
I'd appreciate it if you wrote the number followed by its unit.

So for `CC(=O)Nc1ccc(O)cc1` , the logged EC50 turned out to be 11.6 mM

###

tested on: 3D HepaRG/HSC co-culture; experiment: APAP toxicity assay, cell viability by ATP (Cell titer Glo); type: cell-based, human; details: Homo sapiens, 144 h; Day 6/7; 3D HepaRG/HSC; current study, 0% DMSO; read-out: APAP EC50 values (±stdev)
measurementName: EC50 (mM)
// return numeric value only (unit: mM, not printed)

Sure, the documented EC50 for CC(=O)Nc1ccc(O)cc1 [APAP, Acetaminophen] is 10

Values were extracted from patent US20170166870A1.
